Assay: physchem
Format: physicochemical
Conditions: Table S2; n-octanol/PBS pH 7.4; incubation 3
Below, each of the compounds is paired with its reported D (partition ratio), incubation 3 value.

compound	D (partition ratio), incubation 3
O=C(N[C@@H]1[C@@H]2CC[C@@]1(c1ccc(Cl)cc1)C2)c1cccnc1Cl (relative stereo) [Compound 30]	6.11E+02
O=C(NC1CCN(CCCCC2(C(=O)NCC(F)(F)F)c3ccccc3-c3ccccc32)CC1)c1ccccc1-c1ccc(C(F)(F)F)cc1 [Lomitapide, reference compound]	6.79E+04
O=C(N[C@@H]1[C@H]2C[C@]1(c1ccc(Cl)cc1)CO2)c1cccnc1Cl (relative stereo) [Compound 31]	3.13E+03
Cn1cc(C(=O)N[C@@H]2[C@H]3C[C@]2(c2cc(F)c(F)c(F)c2)CO3)c(C(F)F)n1 (relative stereo) [Compound 29]	5.77E+02
O=C(NC1CCN(CCCCC2(C(=O)NCC(F)(F)F)c3ccccc3-c3ccccc32)CC1)[C@@H]1[C@@H]2CC[C@@]1(c1ccc(C(F)(F)F)cc1)C2 (relative stereo) [Compound 34]	1.71E+05
O=C(NC1CCN(CCCCC2(C(=O)NCC(F)(F)F)c3ccccc3-c3ccccc32)CC1)[C@@H]1[C@H]2C[C@]1(c1ccc(C(F)(F)F)cc1)CO2 (relative stereo) [Compound 35]	8.88E+04

Where these numbers come from: paper PMC10396955
